Listed molecules paired with reported IC50
# TARGET DESC: Phosphatidylinositol 4,5-bisphosphate 3-kinase catalytic subunit alpha isoform (Homo sapiens, UniProt P42336)
# Sequence (P42336 whole entry, canonical isoform): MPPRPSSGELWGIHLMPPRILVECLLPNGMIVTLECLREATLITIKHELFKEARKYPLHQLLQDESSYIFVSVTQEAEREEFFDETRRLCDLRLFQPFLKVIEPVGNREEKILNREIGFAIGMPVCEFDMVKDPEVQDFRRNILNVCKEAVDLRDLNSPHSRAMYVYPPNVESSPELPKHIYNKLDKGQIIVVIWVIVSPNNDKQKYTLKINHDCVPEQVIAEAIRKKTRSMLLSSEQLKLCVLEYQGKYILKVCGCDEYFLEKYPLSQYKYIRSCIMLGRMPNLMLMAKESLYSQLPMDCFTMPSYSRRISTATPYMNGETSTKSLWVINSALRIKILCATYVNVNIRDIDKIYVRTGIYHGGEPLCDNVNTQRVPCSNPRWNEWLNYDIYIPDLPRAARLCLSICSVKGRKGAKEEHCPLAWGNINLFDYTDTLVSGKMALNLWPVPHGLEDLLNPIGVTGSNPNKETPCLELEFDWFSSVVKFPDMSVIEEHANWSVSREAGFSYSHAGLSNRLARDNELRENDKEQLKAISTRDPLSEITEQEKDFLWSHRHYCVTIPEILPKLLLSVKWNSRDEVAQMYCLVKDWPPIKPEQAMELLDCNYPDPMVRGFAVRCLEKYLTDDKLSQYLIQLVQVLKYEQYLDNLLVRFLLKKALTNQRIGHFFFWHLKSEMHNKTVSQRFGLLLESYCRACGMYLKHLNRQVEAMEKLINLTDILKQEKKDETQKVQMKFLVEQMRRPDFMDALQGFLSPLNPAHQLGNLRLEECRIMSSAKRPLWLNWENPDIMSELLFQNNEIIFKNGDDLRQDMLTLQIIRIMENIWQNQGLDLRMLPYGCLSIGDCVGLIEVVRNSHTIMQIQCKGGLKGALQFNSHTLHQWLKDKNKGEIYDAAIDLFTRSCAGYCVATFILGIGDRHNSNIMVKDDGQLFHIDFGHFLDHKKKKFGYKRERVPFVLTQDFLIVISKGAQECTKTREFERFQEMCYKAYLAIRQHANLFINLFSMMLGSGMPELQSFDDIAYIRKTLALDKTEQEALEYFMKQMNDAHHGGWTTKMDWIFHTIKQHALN
# ASSAY SUMMARY: Inhibition of N-terminus poly-His tagged human PI3Kalpha expressed in baculovirus infected insect sf9 cells coexpressing p85alpha using PI(4,5)P2 as substrate preincubated with compound for 15 mins measured after 10 mins by HTRF assay

Query: Need IC50 of `O=c1cc(N2CCOCC2)nc(Cc2nc3ccccc3n2C2CCCCC2)[nH]1` , thanks.
Reply: 8.4 µM

###

# ASSAY SUMMARY: Drug metabolism in mouse liver microsomes; note: time not given here
# Type: ADME, Microsome
# CONDITION DESCRIPTION: read-out: Drug metabolism
ASSAY READOUT: metabolised (%)

These solved cases illustrate the format of a correct answer.
> print(dat)
                           structure.string  assay.readout  value.unit  readout.number
1  O=c1cc(N2CCOCC2)nc(Cc2nc3c(-c4ccccc4)c(F)ccc3o2)[nH]1    metabolised           %              17
2  Cn1c(Cc2nc(N3CCOCC3)cc(=O)[nH]2)nc2cccc(-c3ccccc3)c21    metabolised           %              55
3   O=c1cc(N2CCOCC2)nc(Cc2nc3ccccc3o2)[nH]1    metabolised           %               7
4  O=c1cc(N2CCOCC2)nc(Cc2nc3c(-c4cccs4)cccc3o2)[nH]1    metabolised           %              79
5  O=c1cc(N2CCOCC2)nc(Cc2nc3ccccc3n2-c2ccccc2)[nH]1    metabolised           %             100
6  O=c1cc(N2CCOCC2)nc(Cc2nc3c(-c4ccccc4)cccc3o2)[nH]1    metabolised           %              26
7  O=c1cc(N2CCOCC2)nc(Cc2nc3cc(Br)ccc3[nH]2)[nH]1    metabolised           %              27
8  O=c1cc(N2CCOCC2)nc(Cc2nc3cc(F)ccc3o2)[nH]1    metabolised           %              23

1. Cn1c(Cc2nc(N3CCOCC3)cc(=O)[nH]2)nc2c(-c3ccccc3)cccc21
2. O=c1cc(N2CCOCC2)nc(Cc2nc3cc(F)ccc3n2C2CC2)[nH]1
Query: Of the two listed items, 1 and 2 , which carries the larger metabolised figure? Respond using the label that marks the chosen record.
Reply: 2

###

Measured IC50 accompanies every entry in the list below.
# TARGET DESC: Phosphatidylinositol 4,5-bisphosphate 3-kinase catalytic subunit alpha isoform (Homo sapiens)
# ASSAY SUMMARY: Inhibition of N-terminus poly-His tagged human PI3Kalpha expressed in baculovirus infected insect sf9 cells coexpressing p85alpha using PI(4,5)P2 as substrate preincubated with compound for 15 mins measured after 10 mins by HTRF assay

Example cases with answers are listed next.
> print(dat)
                            structure.string   result
 1  O=c1cc(N2CCOCC2)nc(Cc2nc3ccc(Cl)cc3[nH]2)[nH]1  5.65 µM
 2  Cn1c(Cc2nc3cc(F)ccc3[nH]2)nc(N2CCOCC2)cc1=O  > 10 µM
 3  O=c1cc(N2CCOCC2)nc(Cc2nc3ccccc3[nH]2)[nH]1  > 10 µM
 4     Cn1c(Cc2nc3ccccc3o2)nc(N2CCOCC2)cc1=O  > 10 µM
 5  COc1ccc2[nH]c(Cc3nc(N4CCOCC4)cc(=O)[nH]3)nc2c1  > 10 µM
 6  Cn1c(Cc2nc(N3CCOCC3)cc(=O)[nH]2)nc2ccccc21  > 10 µM
 7  O=c1cc(N2CCOCC2)nc(Cc2nc3c(F)cccc3o2)[nH]1  > 10 µM
 8  Cc1cc(F)ccc1Oc1cccc2c(=O)cc(N3CCOCC3)[nH]c12  > 10 µM
 9  Cc1cccc2oc(Cc3nc(N4CCOCC4)cc(=O)[nH]3)nc12  > 10 µM
10  COCCn1c(Cc2nc(N3CCOCC3)cc(=O)[nH]2)nc2cc(F)ccc21  > 10 µM

Query: Endpoint output: IC50 of `O=c1cc(N2CCOCC2)nc(Cc2nc3ccc(F)cc3o2)[nH]1` . Value?
Reply: > 10 µM

Query: Could you share which IC50 value was measured for `O=c1cc(N2CCOCC2)nc(Cc2nc3ccccc3n2Cc2ccccc2)[nH]1` ?
Reply: 5.72 µM

Query: Could you share which IC50 value was measured for `Cc1cccc2nc(Cc3nc(N4CCOCC4)cc(=O)[nH]3)oc12` ?
Reply: 7.15 µM

Query: Endpoint output: IC50 of `Cn1c(Cc2nc(N3CCOCC3)cc(=O)[nH]2)nc2cccc(-c3ccccc3)c21` . Value?
Reply: 4.58 µM

Query: Would you kindly share the measured IC50 for `O=c1cc(N2CCOCC2)nc(Cc2nc3c(Br)cccc3o2)[nH]1` ?
Reply: > 10 µM

All values here come from ChEMBL document CHEMBL2062364.
